These data points were gathered from the supplement of paper PMC10126150.

For each record, write down the corresponding switch fluorescence ratio.
tested on: ATP; experiment: switch fluorescence ratio, 500 uM ATP over buffer (Cy3 cluster intensity, sum of 5 cycles each) (fold (ratio)); higher = stronger signal-on switching upon ATP binding; sequences stand for … in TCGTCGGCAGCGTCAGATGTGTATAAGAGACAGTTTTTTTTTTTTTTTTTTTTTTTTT…TC; details: aptamer strand: ATP DNA aptamer (quencher-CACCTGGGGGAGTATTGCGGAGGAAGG + anchor), 100 nM annealed; ATP concentration: 500 uM;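 further: ATP exposure 15 min at 22 °C before imaging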
One number for each entry.

Consider the reported switch fluorescence ratio for these sequences:
// field: switch fluorescence ratio; key: `GACGGCTTGG` ; value = 1.02

// `ACCTGGATAC` : switch fluorescence ratio value = 1.86

So for `GAGATTTAGG` , the logged switch fluorescence ratio turned out to be 0.969

Documented switch fluorescence ratio of `CTTAAATTTA` : 1.02

Entry `GTCGTAAAAA` ; switch fluorescence ratio = 1.61

Summary for this sequence, `GGTTAATGGC` : switch fluorescence ratio is 1.05

Hello, I would appreciate it if you could give switch fluorescence ratio for each entry below.
1. TTATGTATTT
2. TGAAAATAG
3. TCCAAACTGT
4. TGATTGTGAA
5. CCGAAGGGGA
6. GGAGCATGAG
7. TAATGAGTTT
8. TTTGGTCTCA

[0.995, 0.992, 1.01, 1, 1.65, 2.47, 1.01, 1]
